measuredOn: human recombinant CK2 holoenzyme (Homo sapiens, UniProt P68400)
Sequence (P68400 whole entry): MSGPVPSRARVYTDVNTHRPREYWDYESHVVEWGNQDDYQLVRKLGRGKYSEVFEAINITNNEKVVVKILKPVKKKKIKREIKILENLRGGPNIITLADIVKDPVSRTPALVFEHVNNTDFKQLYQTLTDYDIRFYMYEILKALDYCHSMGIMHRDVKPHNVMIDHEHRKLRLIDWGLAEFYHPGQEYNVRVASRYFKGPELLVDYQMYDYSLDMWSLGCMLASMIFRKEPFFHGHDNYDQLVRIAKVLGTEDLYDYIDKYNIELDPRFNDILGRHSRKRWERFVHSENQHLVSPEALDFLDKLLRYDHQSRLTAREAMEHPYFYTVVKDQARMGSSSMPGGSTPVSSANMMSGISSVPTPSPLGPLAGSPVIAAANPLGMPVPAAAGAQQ
Sequence (P67870 whole entry partner): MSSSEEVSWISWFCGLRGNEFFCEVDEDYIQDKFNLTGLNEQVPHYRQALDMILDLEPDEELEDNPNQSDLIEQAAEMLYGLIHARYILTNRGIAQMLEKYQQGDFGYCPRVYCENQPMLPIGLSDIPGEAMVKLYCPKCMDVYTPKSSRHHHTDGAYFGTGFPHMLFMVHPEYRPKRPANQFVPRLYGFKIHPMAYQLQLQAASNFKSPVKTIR
assayDetails: CE-based CK2 activity assay (substrate peptide RRRDDDSDDD)
Type: biochemical
assayContext: read-out: % Inhibition at 10 µM
Note to self: values exactly at 40% are 1. So inhibition at 10 µM at or above 40% is 1, below is -1.

Worked cases, answers included:
{"compound": "CC(=O)Oc1cc(O)c2c(c1C=O)O[C@@](C)(CC/C=C(\\C)CCC=C(C)C)C=C2 [Stachybotrychromene B]", "measuredOn": "human recombinant CK2 holoenzyme (Homo sapiens, UniProt P68400)", "categoryLabel": 1}
{"compound": "CC(=O)O[C@@H]1[C@H](O)C[C@@]2(C)[C@@H](CC[C@@H](C)[C@]23Cc2c(O)cc(CO)c(C=O)c2O3)C1(C)C [Stachybotrysin C]", "measuredOn": "human recombinant CK2 holoenzyme (Homo sapiens, UniProt P68400)", "categoryLabel": -1}
{"compound": "CC(C)=CCC/C(C)=C/CC[C@@]1(C)C=Cc2c(O)cc(C)c(C=O)c2O1 [Stachybotrychromene A]", "measuredOn": "human recombinant CK2 holoenzyme (Homo sapiens, UniProt P68400)", "categoryLabel": -1}
{"compound": "C[C@@H]1CC[C@H]2C(C)(C)[C@H](O)CC[C@]2(C)[C@@]12Cc1c(O)cc3c(c1O2)CN(CCO)C3=O [Stachybotryamide]", "measuredOn": "human recombinant CK2 holoenzyme (Homo sapiens, UniProt P68400)", "categoryLabel": -1}

Next up:
In plain terms: is recorded inhibition at 10 µM at least 40% for CC(=O)O[C@@H]1CC[C@@]2(C)[C@@H](CC[C@@H](C)[C@]23Cc2c(O)cc4c(c2O3)CNC4=O)C1(C)C [Stachybotrylactam acetate] ?
1
